Target: human FAAH (Homo sapiens)
Construct: host or cells: COS-7 cells, transient transfection; 13,000 g membrane fraction solubilised in 1% Triton X-100
Sequence (O00519 1-579): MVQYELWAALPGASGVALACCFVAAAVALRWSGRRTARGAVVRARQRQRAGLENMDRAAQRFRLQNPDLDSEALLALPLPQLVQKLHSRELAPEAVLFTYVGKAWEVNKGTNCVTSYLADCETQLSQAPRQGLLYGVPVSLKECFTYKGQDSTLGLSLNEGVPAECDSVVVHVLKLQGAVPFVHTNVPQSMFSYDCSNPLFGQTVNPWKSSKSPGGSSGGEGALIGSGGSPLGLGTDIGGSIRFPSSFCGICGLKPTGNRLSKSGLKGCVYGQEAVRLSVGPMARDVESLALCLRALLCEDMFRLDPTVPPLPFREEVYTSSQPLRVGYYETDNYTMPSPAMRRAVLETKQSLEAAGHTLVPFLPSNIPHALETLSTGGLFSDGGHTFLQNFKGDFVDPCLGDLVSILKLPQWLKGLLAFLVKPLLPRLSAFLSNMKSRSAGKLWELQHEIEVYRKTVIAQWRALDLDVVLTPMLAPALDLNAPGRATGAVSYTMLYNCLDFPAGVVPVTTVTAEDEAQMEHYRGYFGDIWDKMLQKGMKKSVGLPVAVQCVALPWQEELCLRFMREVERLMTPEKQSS
Test: Human FAAH biochemical inhibition assay (AMC arachidonoyl amide fluorescence)
Conditions: Table 2, human FAAH (no asterisk); read-out: Activity (Ki)
pKi: −log10 of the molar value.
Quantity Kind: pKi

Here are 3 compounds together with their reported answers.
Compound	pKi
OB(c1ccccc1)c1ccccc1	< 6.00
NC(=O)c1ccc(-c2cccc(B(O)O)c2)cc1	< 6.00
CCCCOc1ccc(Oc2ccc(B(O)O)cc2)cc1F	> 8.00

INPUT: Please report the measured pKi for `CC(C)(C)OC(=O)n1cncc1COc1ccc(B2OC(C)(C)C(C)(C)O2)c(F)c1` tested on human FAAH (Homo sapiens).
OUTPUT: > 8.00

INPUT: Please report the measured pKi for `Cc1ccc(Oc2ccc(B(O)O)cc2)cc1[N+](=O)[O-]` tested on human FAAH (Homo sapiens).
OUTPUT: > 8.00
